B1: PRPH (parent)
chain: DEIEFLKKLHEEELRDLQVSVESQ

Variants of: B1
Experiment: protein stability index of a GFP-peptide fusion (GPS, HEK-293T) (PSI 1-6); higher = more stable;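 further: lentivirally expressed fusions sorted by FACS into six bins by GFP to DsRed ratio, PSI derived from sequencing read proportions per bin multiplied by bin number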
Details: c terminus: a fixed tail appended
Classification field: enter true (1) for protein stability index values not below 5, false (0) for values below it.

Query: Is the recorded value of protein stability index equal to or greater than 5 for this variant? L17Y
Response: false (0)

Query: Is the recorded value of protein stability index equal to or greater than 5 for this variant? K8W
Response: false (0)

Query: Is the recorded value of protein stability index equal to or greater than 5 for this variant? E13C
Response: false (0)

Query: Is the recorded value of protein stability index equal to or greater than 5 for this variant? V19M
Response: false (0)

Query: Is the recorded value of protein stability index equal to or greater than 5 for this variant? V19H
Response: true (1)

Query: Is the recorded value of protein stability index equal to or greater than 5 for this variant? E22W
Response: false (0)

Query: Is the recorded value of protein stability index equal to or greater than 5 for this variant? D16P
Response: false (0)

Query: Is the recorded value of protein stability index equal to or greater than 5 for this variant? L14T
Response: true (1)

Query: Is the recorded value of protein stability index equal to or greater than 5 for this variant? V21E
Response: true (1)
